The origin of these recorded values is BindingDB's records for doi:10.1021/jm00060a006.

I'd appreciate it if you could supply pIC50 values for the items below.
procedure_text: Inhibition of PAF-induced rabbit platelet aggregation
Give bare numbers, as −log10 of the molar value.

See these solved cases before continuing.
1. CCCCCCCCNC(=O)OCC1CN(C(=O)c2cc(OC)c(OC)c(OC)c2)CCN1C(=O)c1cc(OC)c(OC)c(OC)c1 (stereo not drawn)    6.43
2. COc1cc(C(=O)N2CCN(C(=O)c3cc(OC)c(OC)c(OC)c3)C(COC(C)=O)C2)cc(OC)c1OC (stereo not drawn)    6.37
3. COc1cc(C(=O)N2CCN(C(=O)c3cc(OC)c(OC)c(OC)c3)C(COC(=O)NCCC(C)C)C2)cc(OC)c1OC (stereo not drawn)    6.85
4. COc1cc(NC(=O)OCC2CN(C(=O)c3cc(OC)c(OC)c(OC)c3)CCN2C(=O)c2cc(OC)c(OC)c(OC)c2)cc(OC)c1OC (stereo not drawn)    4.86
5. CCCCC(CC)CNC(=O)OCC1CN(C(=O)c2cc(OC)c(OC)c(OC)c2)CCN1C(=O)c1cc(OC)c(OC)c(OC)c1 (stereo not drawn)    5.41
6. COc1cc(C(=O)N2CCN(C(=O)c3cc(OC)c(OC)c(OC)c3)C(COC(=O)NC(C)C(C)(C)C)C2)cc(OC)c1OC (stereo not drawn)    6.77
7. CCCCCC(=O)OCC1CN(C(=O)c2cc(OC)c(OC)c(OC)c2)CCN1C(=O)c1cc(OC)c(OC)c(OC)c1 (stereo not drawn)    6.54

Next compound, please.
Inquiry: What value of measured pIC50 is listed for CCCCNC(=O)OCC1CN(C(=O)c2cc(OC)c(OC)c(OC)c2)CCN1C(=O)c1cc(OC)c(OC)c(OC)c1 (stereo not drawn) ?
Reply text: 6.62
